# pKi values compiled below
# Target Under Test: Proprotein convertase subtilisin/kexin type 7 (Homo sapiens, UniProt Q16549)
# Sequence (Q16549 whole entry): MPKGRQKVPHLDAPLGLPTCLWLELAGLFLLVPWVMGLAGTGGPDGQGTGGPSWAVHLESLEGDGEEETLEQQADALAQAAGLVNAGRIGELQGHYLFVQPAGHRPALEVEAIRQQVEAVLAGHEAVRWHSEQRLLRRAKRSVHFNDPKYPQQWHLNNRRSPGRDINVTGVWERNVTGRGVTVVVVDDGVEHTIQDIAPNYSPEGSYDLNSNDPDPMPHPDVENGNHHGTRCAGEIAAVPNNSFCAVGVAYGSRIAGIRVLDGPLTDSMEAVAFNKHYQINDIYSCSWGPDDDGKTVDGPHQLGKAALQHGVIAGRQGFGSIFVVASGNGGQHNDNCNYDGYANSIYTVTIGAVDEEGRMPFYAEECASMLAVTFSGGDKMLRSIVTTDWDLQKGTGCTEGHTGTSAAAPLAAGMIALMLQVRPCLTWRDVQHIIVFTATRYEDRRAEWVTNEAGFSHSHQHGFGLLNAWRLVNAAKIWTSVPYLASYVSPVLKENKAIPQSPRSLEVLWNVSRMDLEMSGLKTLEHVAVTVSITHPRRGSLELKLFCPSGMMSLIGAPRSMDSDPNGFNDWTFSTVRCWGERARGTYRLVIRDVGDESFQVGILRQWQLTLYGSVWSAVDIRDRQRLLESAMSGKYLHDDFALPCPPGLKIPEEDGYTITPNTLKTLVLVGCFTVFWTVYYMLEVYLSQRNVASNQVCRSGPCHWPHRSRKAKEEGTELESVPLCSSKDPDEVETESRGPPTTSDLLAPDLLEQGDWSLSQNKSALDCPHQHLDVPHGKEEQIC
pKi: −log10 of the molar value.

[
  {
    "Substance": "H-TPQRARRRKKRT-OH",
    "Target Under Test": "Proprotein convertase subtilisin/kexin type 7 (Homo sapiens, UniProt Q16549)",
    "pKi": 6.69
  },
  {
    "Substance": "H-TPQRARRRKKRY-OH",
    "Target Under Test": "Proprotein convertase subtilisin/kexin type 7 (Homo sapiens, UniProt Q16549)",
    "pKi": 5.91
  },
  {
    "Substance": "H-TPQRARRRKKRW-OH",
    "Target Under Test": "Proprotein convertase subtilisin/kexin type 7 (Homo sapiens, UniProt Q16549)",
    "pKi": 6.76
  },
  {
    "Substance": "H-TPRARRRKKRI-NH2",
    "Target Under Test": "Proprotein convertase subtilisin/kexin type 7 (Homo sapiens, UniProt Q16549)",
    "pKi": 6.87
  },
  {
    "Substance": "H-TPRARRRKKRT-NH2",
    "Target Under Test": "Proprotein convertase subtilisin/kexin type 7 (Homo sapiens, UniProt Q16549)",
    "pKi": 6.87
  },
  {
    "Substance": "H-TPQRARRRKKRF-OH",
    "Target Under Test": "Proprotein convertase subtilisin/kexin type 7 (Homo sapiens, UniProt Q16549)",
    "pKi": 5.95
  }
]

----------
pKi: −log10 of the molar value. Non-standard residues stand in square brackets, D forms with d. Residues, ends and D or L forms follow the SMILES beside them. Sar = CNCC(=O)O
List of pKi tested on Furin (Homo sapiens).
Sequence (P09958 whole entry): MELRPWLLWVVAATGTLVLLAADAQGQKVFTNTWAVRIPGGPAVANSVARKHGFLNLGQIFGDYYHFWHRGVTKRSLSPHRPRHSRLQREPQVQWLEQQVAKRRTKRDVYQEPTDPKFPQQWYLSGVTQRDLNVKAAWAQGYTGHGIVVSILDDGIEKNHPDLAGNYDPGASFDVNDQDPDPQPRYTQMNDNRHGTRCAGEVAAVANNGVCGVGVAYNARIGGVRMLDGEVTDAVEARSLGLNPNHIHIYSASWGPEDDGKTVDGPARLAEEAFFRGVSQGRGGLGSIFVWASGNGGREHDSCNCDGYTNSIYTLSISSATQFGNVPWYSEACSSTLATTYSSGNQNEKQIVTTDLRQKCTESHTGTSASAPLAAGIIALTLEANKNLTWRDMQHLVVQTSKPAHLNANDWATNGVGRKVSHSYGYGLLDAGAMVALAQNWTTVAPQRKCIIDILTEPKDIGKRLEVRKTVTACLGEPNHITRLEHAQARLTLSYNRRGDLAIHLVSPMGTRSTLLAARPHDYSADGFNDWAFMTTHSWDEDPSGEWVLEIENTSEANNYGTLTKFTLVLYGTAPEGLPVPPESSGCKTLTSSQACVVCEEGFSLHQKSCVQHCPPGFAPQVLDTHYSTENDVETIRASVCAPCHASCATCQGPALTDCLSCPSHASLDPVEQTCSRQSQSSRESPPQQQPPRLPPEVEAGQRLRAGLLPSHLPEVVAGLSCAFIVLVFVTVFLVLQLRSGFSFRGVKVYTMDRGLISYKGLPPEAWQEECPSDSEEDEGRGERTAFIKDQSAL

[
  {
    "Compound": "C[C@H](NC(=O)[C@H](C)NC(=O)[C@H](CCCNC(=N)N)NC(=O)[C@@H]1CCCN1C(=O)[C@@H](N)[C@@H](C)O)C(=O)N[C@@H](CCCNC(=N)N)C(=O)N[C@@H](CCCNC(=N)N)C(=O)N[C@@H](CCCCN)C(=O)N[C@@H](CCCCN)C(=O)N[C@@H](CCCNC(=N)N)C(=O)N(C)CC(=O)O (H-TPRAARRKKR[Sar]-OH)",
    "pKi": "< 7.00"
  },
  {
    "Compound": "C[C@@H](O)[C@H](N)C(=O)N1CCC[C@H]1C(=O)N[C@@H](CCC(N)=O)C(=O)N[C@@H](CCCN=C(N)N)C(=O)NC1(C(=O)N[C@@H](CCCN=C(N)N)C(=O)N[C@@H](CCCN=C(N)N)C(=O)N[C@@H](CCCN=C(N)N)C(=O)N[C@@H](CCCCN)C(=O)N[C@@H](CCCCN)C(=O)N[C@@H](CCCNC(=N)N)C(=O)NCC(=O)O)CCCC1",
    "pKi": "< 7.00"
  },
  {
    "Compound": "C[C@@H](O)[C@H](N)C(=O)N1CCC[C@H]1C(=O)N[C@@H](CCC(N)=O)C(=O)N[C@@H](CCCN=C(N)N)C(=O)N[C@H](CCCCN)C(=O)N[C@@H](CCCN=C(N)N)C(=O)N[C@@H](CCCN=C(N)N)C(=O)N[C@@H](CCCN=C(N)N)C(=O)N[C@@H](CCCCN)C(=O)N[C@@H](CCCCN)C(=O)N[C@@H](CCCNC(=N)N)C(=O)NCC(=O)O",
    "pKi": "< 7.00"
  }
]
